Source of measurements: ChEMBL document CHEMBL4689842

# Tested on: U2OS
# measurement protocol: Multiplex assay against U2OS
# Type: toxicity, cell-based
# condition label: human, 24 h, 10 µM, compound concentration 10 uM, replicate 1

# compound, tested system, Total Cell Count
data = [
    ("C=CC(=O)Nc1cccc(C(=O)Nc2ccc(Nc3cc(-c4[nH]c(SC)nc4C)ccn3)cc2)c1", "U2OS", 208),
    ("COc1ncc(-c2ccc3nccc(-c4ccnnc4)c3c2)cc1NS(=O)(=O)c1ccc(F)cc1F [OMIPALISIB]", "U2OS", 170),
    ("COc1cc(-n2cnc3cc(-c4ccc(Cl)cc4)sc3c2=O)ccc1OCCN1CCCC1", "U2OS", 147),
    ("CN(C)C(=O)N[C@H]1CC[C@H](CCN2CCN(c3cccc(Cl)c3Cl)CC2)CC1.Cl [CARIPRAZINE HYDROCHLORIDE]", "U2OS", 84),
    ("C=CC(=O)Nc1cc2c(Nc3ccc(F)c(Cl)c3)ncnc2cc1OCCCN1CCOCC1.Cl.Cl [CANERTINIB DIHYDROCHLORIDE]", "U2OS", 186),
    ("CN1CCC[C@@H]1CCO[C@](C)(c1ccccc1)c1ccc(Cl)cc1.O=C(O)/C=C/C(=O)O [CLEMASTINE FUMARATE]", "U2OS", 120),
    ("CN1CCN(CCOc2cc(OC3CCOCC3)c3c(Nc4c(Cl)ccc5c4OCO5)ncnc3c2)CC1 [SARACATINIB]", "U2OS", 224),
    ("Cc1nc(-c2ccc(-c3ccc(C(=O)N4CCc5cc6c(cc54)C4(CCN(C)CC4)CO6)cc3)c(C)c2)no1 [SB-224289]", "U2OS", 171),
]

====

Each entry below lists one item and its recorded Growth Rate value.
# System: Fibroblast
# measurement protocol: Incucyte cell viability with human fibroblast; note: filed as whole numbers so only -1 and 0 and 1 occur
# Assay type: toxicity, cell-based
# condition label: 18 h, 10 µM, compound concentration 10 uM, replicate number 2, timepoint 18 hours

# molecule, tested system, Growth Rate
measured = [
    ("Cc1cccc([C@H](C)c2c[nH]cn2)c1C.Cl [DEXMEDETOMIDINE HYDROCHLORIDE]", "Fibroblast", 1),
    ("Br.Br.N=C(N)SCCc1c[nH]cn1", "Fibroblast", 0),
    ("CN([C@@H]1CCc2c(CC(=O)O)c3cc(S(C)(=O)=O)ccc3n2C1)S(=O)(=O)c1ccc(F)cc1 [CRTH2-negative-control]", "Fibroblast", 0),
    ("O=C(NCc1ncc(C(F)(F)F)cc1Cl)c1ccc2c(c1)C1(CCS(=O)(=O)CC1)[C@H](C1CC1)N2S(=O)(=O)c1ccc(F)cc1", "Fibroblast", 1),
    ("CN([C@@H]1CCc2c(CC(=O)O)c3ccccc3n2C1)S(=O)(=O)c1ccc(F)cc1", "Fibroblast", 1),
]

====

# Tested on: Fibroblast
# measurement protocol: Multiplex assay against human fibroblast
# Format: toxicity, cell-based
# condition label: 12 h, 10 µM, compound concentration 10 uM, replicate 1
Mark NO for Population Membrane Permeable-Phenotype (%) values under 20%, and YES for everything at or above.

# compound, class name
records = [
    ("CN(C)C(=O)/C(C#N)=C/c1ccc(-c2nc3cnc4[nH]ccc4c3n2C2CCCCC2)o1", "YES"),
    ("Cc1[nH]c(/C=C2\\C(=O)Nc3ccc(S(=O)(=O)N(C)c4cccc(Cl)c4)cc32)c(C)c1C(=O)N1CCN(C)CC1", "YES"),
    ("COc1cc(-n2cnc3cc(-c4ccc(Cl)cc4)sc3c2=O)ccc1OCCN1CCCC1", "YES"),
    ("CC[C@H](C)C(=O)O[C@H]1C[C@@H](C)C=C2C=C[C@H](C)[C@H](CC[C@@H]3C[C@@H](O)CC(=O)O3)[C@H]21", "YES"),
    ("COc1cc2nccc(Oc3ccc(NC(=O)Nc4cc(C)on4)c(Cl)c3)c2cc1OC.O", "NO"),
    ("Cc1c(-c2ccc(O)cc2)n(Cc2ccc(OCCN3CCCCCC3)cc2)c2ccc(O)cc12", "NO"),
    ("CC(C)NCC(O)COc1ccc(CCOCC2CC2)cc1.Cl (stereo not drawn) [BETAXOLOL HYDROCHLORIDE]", "NO"),
    ("Cl.N#Cc1ccc2[nH]cc(CCCCN3CCN(c4ccc5oc(C(N)=O)cc5c4)CC3)c2c1 [VILAZODONE HYDROCHLORIDE]", "NO"),
]
